Provenance of the data: patent US12338237B2

MEASUREMENT TARGET: glucosylceramide synthase (GCS) (Homo sapiens (Human))
Sequence (Q16739 whole entry, looked up): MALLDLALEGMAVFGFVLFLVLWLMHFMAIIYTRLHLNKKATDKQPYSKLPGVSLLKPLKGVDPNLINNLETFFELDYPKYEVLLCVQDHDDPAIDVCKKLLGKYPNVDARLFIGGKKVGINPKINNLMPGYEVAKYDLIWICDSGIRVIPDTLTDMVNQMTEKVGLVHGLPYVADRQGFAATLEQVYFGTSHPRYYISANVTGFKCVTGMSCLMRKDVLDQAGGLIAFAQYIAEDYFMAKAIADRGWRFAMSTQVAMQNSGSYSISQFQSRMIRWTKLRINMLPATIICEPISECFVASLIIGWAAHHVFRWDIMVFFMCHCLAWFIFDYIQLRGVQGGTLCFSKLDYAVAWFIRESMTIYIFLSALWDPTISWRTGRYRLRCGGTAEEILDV
TEST METHOD NOTES: Evaluation of inhibitory activities against GCS (enzyme reaction with A549 cell lysate, NBD C6-ceramide, HPLC fluorescence)
CONDITION: GCS activity in A549 cell lysate, 37° C. for 90 minutes
IC50 reference
Reply numerically in nM, unit not repeated.

Solved cases below.
>>> meas_value("O=C(NC1CCCc2ccc(-c3cccc(F)c3)cc21)O[C@@H]1CN2CCC1CC2 (some centres unmarked)")
10.8
>>> meas_value("O=C(NC1CCCc2cc(-c3cccc(Cl)c3)ccc21)O[C@@H]1CN2CCC1CC2 (some centres unmarked)")
0.697
>>> meas_value("CCOc1ccc(-c2ccc3c(c2)C(NC(=O)O[C@@H]2CN4CCC2CC4)CCC3)cc1 (some centres unmarked)")
63.3
>>> meas_value("CC1(C)CCc2cc(-c3cccc(F)c3)ccc2C1NC(=O)O[C@@H]1CN2CCC1CC2 (some centres unmarked)")
1.01
>>> meas_value("COc1ccccc1-c1ccc2c(c1)C(NC(=O)O[C@@H]1CN3CCC1CC3)CCC2 (some centres unmarked)")
22.7
>>> meas_value("O=C(NC1CCCc2cc(-c3cccc(OC(F)(F)F)c3)ccc21)O[C@@H]1CN2CCC1CC2 (some centres unmarked)")
2.1
>>> meas_value("O=C(NC1CCCc2cc(-c3ccc(Cl)c(Cl)c3)ccc21)O[C@@H]1CN2CCC1CC2 (some centres unmarked)")
8.42
>>> meas_value("O=C(NC1c2ccc(-c3ccc(F)cc3)cc2CCC12CC2)O[C@@H]1CN2CCC1CC2 (some centres unmarked)")
24.4

Notebook: pull reported IC50 for glucosylceramide synthase (GCS) (Homo sapiens (Human)), entry COc1cccc(-c2ccc3c(c2)CCC(C)(C)C3NC(=O)O[C@@H]2CN3CCC2CC3)c1OC (some centres unmarked)
1.05

// next record CC1(C)CCc2ccc(-c3ccccc3F)cc2C1NC(=O)O[C@@H]1CN2CCC1CC2 (some centres unmarked)
10.9
